Reference source for all entries: ChEMBL document CHEMBL1127319

- assay: Apparent inhibition constant against mammalian malate dehydrogenase (MDH)
pKi: −log10 of the molar value.

cpd_smiles: NC(=O)c1cncc([C@@H]2O[C@H](COP(=O)(O)OP(=O)(O)OC[C@H]3O[C@@H](n4cnc5c(N)ncnc54)[C@H](O)[C@@H]3O)[C@@H](O)[C@H]2O)c1
pKi: 3.39
